Exercise: for every item that follows, state its recorded inhibition.
target: Proto-oncogene tyrosine-protein kinase receptor Ret (Homo sapiens); details: at 1 µM;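 note: each listed value is an averaged inhibition figure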
One number for each entry, in %.

Here is how some molecules turned out for inhibition.
NS(=O)(=O)c1ccc(N/N=C2\C(=O)Nc3ccc(-c4cnco4)cc32)cc1
29
COc1cc(Nc2ncc3c(C)nc(-c4cccc(Oc5ccccc5)c4)n3n2)cc(OC)c1OC
29.1
CCC(=O)Nc1ccc(C)c(-c2ccc(C(=O)NCC3CC3)cc2)c1
6.85
O=C(Nc1ccc(Oc2ccc3[nH]c(NC(=O)c4ccccc4)nc3c2)cc1)Nc1cc(C(F)(F)F)ccc1F
90.2
NS(=O)(=O)c1ccc(Nc2cc(-c3ccc(O)c(F)c3)n[nH]2)cc1
55
Fc1ccc(-c2ncn(C3CCNCC3)c2-c2ccnc(Oc3ccc(Oc4ccccc4)cc3)n2)cc1
5.4
NC(=O)c1ccc(Oc2nccc(-c3c(-c4ccc(F)cc4)ncn3C3CCNCC3)n2)cc1
2.99
FC(F)(F)c1cccc(Nc2nccc(-c3cnn4nc(-c5ccccc5)ccc34)n2)c1
2.88

# evaluate next
Find inhibition (Proto-oncogene tyrosine-protein kinase receptor Ret (Homo sapiens)) for the entry `O=C1NC(=O)C(c2cccc(Cl)c2)=C1Nc1ccc(Cl)c(C(=O)O)c1` 3.52

---

Exercise: for every item that follows, state its recorded inhibition.
biological target: Tyrosine-protein kinase ABL2 (Homo sapiens); conditions: at 1 µM
Description: GSK_PKIS: ARG mean inhibition at 1 uM [Nanosyn]
Don't forget the unit after the number, please.

FC(F)(F)c1cccc(Nc2nccc(-c3cnn4nc(-c5ccccc5)ccc34)n2)c1
3.79%
Clc1ccc(CNc2nccc(-c3cnn4ncccc34)n2)cc1
7.59%
O=C(Nc1n[nH]c2nc(-c3ccc(O)cc3)c(Br)cc12)C1CC1
25.7%

// batch mode: one inhibition value per listed entry
1. CN(C)c1ccc2c(c1)/C(=C/Nc1ccc(S(N)(=O)=O)cc1)C(=O)N2
2. COc1cc2ncn(-c3cc(OCc4cccs4)c(C(N)=O)s3)c2cc1OC
3. Cc1ccc(NC(=O)c2ccoc2)cc1-c1ccc(C(=O)NCC2CC2)cc1
4. CS(=O)(=O)CCNCc1cc(-c2cc3c(Nc4ccc(OCc5cccc(F)c5)c(Cl)c4)ncnc3s2)cs1

["4.52%", "18.4%", "2.36%", "6.38%"]

---

Biological target: Homeodomain-interacting protein kinase 4 (Homo sapiens) (UniProt Q8NE63);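 note: reported as mean inhibition, part of the GSK PKIS dataset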
Sequence (whole entry): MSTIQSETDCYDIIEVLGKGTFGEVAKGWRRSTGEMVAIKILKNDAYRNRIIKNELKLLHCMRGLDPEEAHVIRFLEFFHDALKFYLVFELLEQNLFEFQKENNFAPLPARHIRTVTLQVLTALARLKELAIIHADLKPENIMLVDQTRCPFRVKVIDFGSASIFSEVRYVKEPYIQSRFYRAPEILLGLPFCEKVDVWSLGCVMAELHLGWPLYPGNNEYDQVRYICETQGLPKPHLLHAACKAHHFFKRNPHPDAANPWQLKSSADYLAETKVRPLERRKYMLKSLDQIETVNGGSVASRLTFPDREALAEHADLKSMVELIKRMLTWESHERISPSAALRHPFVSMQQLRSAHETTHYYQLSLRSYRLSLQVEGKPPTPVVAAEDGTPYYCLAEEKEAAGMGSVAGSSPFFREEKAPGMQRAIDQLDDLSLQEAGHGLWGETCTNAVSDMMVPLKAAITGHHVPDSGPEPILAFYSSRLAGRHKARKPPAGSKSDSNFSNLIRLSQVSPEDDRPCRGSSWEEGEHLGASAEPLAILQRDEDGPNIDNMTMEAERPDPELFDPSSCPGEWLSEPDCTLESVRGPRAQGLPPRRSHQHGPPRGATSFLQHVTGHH
Settings: at 0.1 µM
measuredEndpoint: inhibition (%)
One number for each entry, in %.

Here is how some molecules turned out for inhibition.
COc1ccc(-c2ccc3c(NC(=O)C4CC4)n[nH]c3n2)cc1
0.72
CCS(=O)(=O)c1ccc(OC)c(Nc2ncc(-c3cccc(-c4ccccc4F)c3)o2)c1
3.89
COc1cc2ncn(-c3cc(OCc4ccccc4C(F)(F)F)c(C(C)=O)s3)c2cc1OC
3.23

// batch mode: one inhibition value per listed entry
1. COc1cc(N2CCN(C(C)C)CC2)ccc1Nc1nc(Nc2ccc(F)cc2C(=O)NC[C@@H](O)CO)c2cc[nH]c2n1
2. Fc1ccc(-c2ncn(C3CCNCC3)c2-c2ccnc(Oc3ccc(F)c(F)c3)n2)cc1

1: 32.3; 2: 0.46

The origin of these recorded values is ChEMBL document CHEMBL1961873.
